Where do the numbers come from? From patent US3948898A.

Let's look at some molecules and their measured LD50 at 336 h.
Assay: acute toxicity in mice after oral application (LD50)
Conditions: mouse, in vivo, p.o., observation time 14 days
Structures can show the parent of a compound that is named as a salt.

[
  {
    "molecule": "COc1ccccc1N1CCN(CCN2C(=O)c3ccccc3C(C)(C)C2=O)CC1.Cl.Cl [A]",
    "LD50 at 336 h [mg/kg]": 850
  },
  {
    "molecule": "COc1ccc2c(c1)C(=O)N(CCCNCCc1ccc(OC)c(OC)c1)C(=O)C2(C)C [B, hydrochloride]",
    "LD50 at 336 h [mg/kg]": 775
  }
]
